Molecular target: T1, native human ApoC3 (human, UniProt P02656 21-99)
T1 construct: also called nhuApoC3; native huApoC3
T1 sequence (P02656 21-99): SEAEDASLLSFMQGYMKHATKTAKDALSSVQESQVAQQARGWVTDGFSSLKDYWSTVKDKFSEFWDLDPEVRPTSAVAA
Assay: SPR, ApoC3 over captured IgG1, pH 5.5
Observation type: kon (M⁻¹ s⁻¹)

1. mAb17 (antibody, IgG1, V domains shown, Produced as full length IgG1 (kappa) in ExpiCHO-S cells; also called humanized anti-ApoC3 antibody mAb17) VH: QLVESGGGLVQPGGSLRLSCAASGFTFSTYSMRWVRQAPGKGLEWVSSIHTEAGGTAYRDSVKGRFTISRDNAKNTLYLQMNNLRAEDTAVYYCVIAGYSDWGQGTLVTVSS VL: DIVMTQSPLSLPVTPGEPASISCKTSQGLVHSGGKTYFYWFLQKPGQSPQQLIYQVSNRASGVPDRFTGSGSGTDFTLKISRVEAEDAGVYYCAQGTYYPHTFGQGTRLEIK; 84500
2. mAb8 (antibody, IgG1, V domains shown, Produced as full length IgG1 (kappa) in ExpiCHO-S cells; also called humanized anti-ApoC3 antibody mAb8) VH: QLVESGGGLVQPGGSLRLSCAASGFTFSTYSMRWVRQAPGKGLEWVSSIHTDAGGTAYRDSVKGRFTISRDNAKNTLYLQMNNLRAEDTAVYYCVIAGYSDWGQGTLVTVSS VL: DIVMTQSPLSLSVVPGEPASISCKTSQGLVHSDGKTYFYWFLQKPGQSPQQLIYQVSNRASGVPDRFSGSGSGTDFTLKISRVEAEDVGVYYCAHGTYYPHTFGQGTRLEIK; 84600
3. mAb10 (antibody, IgG1, V domains shown, Produced as full length IgG1 (kappa) in ExpiCHO-S cells; also called humanized anti-ApoC3 antibody mAb10) VH: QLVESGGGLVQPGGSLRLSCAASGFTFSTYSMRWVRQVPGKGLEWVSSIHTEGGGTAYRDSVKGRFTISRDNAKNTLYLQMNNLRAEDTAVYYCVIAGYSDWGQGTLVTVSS VL: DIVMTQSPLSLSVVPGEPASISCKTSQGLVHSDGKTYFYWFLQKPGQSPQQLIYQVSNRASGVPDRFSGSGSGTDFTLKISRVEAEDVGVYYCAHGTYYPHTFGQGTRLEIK; 82100
4. mAb15 (antibody, IgG1, V domains shown, Produced as full length IgG1 (kappa) in ExpiCHO-S cells; also called humanized anti-ApoC3 antibody mAb15) VH: QLVESGGGLVQPGGSLRLSCAASGFTFGTYSMRWVRQAPGKGLEWVSSIHTEAGGTAYRDSVKGRFTISRDNAKNTLYLQMNNLKAEDTAIYYCVIAGYSDWGQGTQVTVSS VL: DIVMTQSPLSLPVTPGESASISCKTSQGLVHSGGKTYFYWFLQKPGQSPQQLIYQVSNRASGVPDRFTGSGSGTDFTLKISRVEAEDAGVYYCAQGTYYPHTFGSGTRLEIK; 134000
5. mAb12 (antibody, IgG1, V domains shown, Produced as full length IgG1 (kappa) in ExpiCHO-S cells; also called humanized anti-ApoC3 antibody mAb12) VH: QLVESGGGLVQPGGSLRLSCAASGFTFSTYSMRWVRQVPGKGLEWVSSIHTDAGGTAYRDSVKGRFTISRDNAKNTLYLQMNSLRPEDTAIYYCVIAGYSDWGQGTLVTVSS VL: DIVMTQSPLSLSVTPGEPASISCKTSQGLVHSDGKTYFYWFLQKPGQSPQQLIYQVSNRASGVPDRFTGSGSGTDFTLKISRVKAEDVGVYYCAHGTYYPHTFGQGTRLEIK; 73200
